Each entry below carries its reported inhibition at 2 µM.
tested on: Human immunodeficiency virus 1; experiment: Antiviral activity against HIV1 NL4-3 infected in human TZM-GFP cells assessed as number of GFP positive cells at 2 uM incubated for 48 hrs by imaging reader; format: functional; conditions: Human immunodeficiency virus 1, NL4-3, TZM
endpoint.name: inhibition at 2 µM

# smiles.record, reported.result
measured = [
    ("Cc1cccc(N(C)C(=O)[C@H](Cc2ccccc2)NC(=O)Cc2c[nH]c3ccccc23)c1", "37%"),
    ("Cc1[nH]c2ccccc2c1CC(=O)N[C@@H](Cc1cccc(Br)c1)C(=O)N(C)c1ccccc1", "0%"),
    ("CN(C(=O)[C@H](Cc1ccccc1)NC(=O)Cc1c[nH]c2ccccc12)c1cccc(Cl)c1", "38%"),
    ("CCN(C(=O)[C@H](Cc1ccccc1)NC(=O)Cc1c(C)n(C(C)C)c2ccccc12)c1ccccc1", "39%"),
    ("COc1cccc(N(C)C(=O)[C@H](Cc2ccccc2)NC(=O)Cc2c[nH]c3ccccc23)c1", "41%"),
    ("CN(C(=O)[C@H](Cc1ccccc1)NC(=O)Cc1c[nH]c2ccccc12)c1cccc(C(F)(F)F)c1", "16%"),
    ("CN(C(=O)[C@H](Cc1ccccc1)NC(=O)CCc1c[nH]c2ccccc12)c1ccccc1", "0%"),
    ("CN(C(=O)[C@H](Cc1ccccc1)NC(=O)Cc1c[nH]c2ccccc12)c1cccc(F)c1", "39%"),
]
